pKi: −log10 of the molar value.
Quick record: pKi, Amine oxidase [flavin-containing] B (Bos taurus).
Measure: pKi

Examples from the recorded data:
Molecule: COc1ccccc1C1CC(c2ccc(O)cc2)=NN1C(C)=O (stereo in doubt; (+)-6)
Measure: pKi
Reported measurement: 3.00
--
Molecule: COc1ccccc1C1CC(c2ccc(O)cc2O)=NN1C(C)=O (single isomer, unassigned; (+))
Measure: pKi
Reported measurement: 3.57
--
Molecule: COc1ccccc1C1CC(c2ccc(O)cc2)=NN1C(C)=O (stereo in doubt; 6)
Measure: pKi
Reported measurement: 3.12

P: COc1ccccc1C1CC(c2ccc(O)cc2O)=NN1C(C)=O (stereo in doubt; 11)
Q: COc1ccccc1C1CC(c2ccc(O)cc2)=NN1C(C)=O (single isomer, unassigned; (-))
Req: Between P and Q , which one shows the smaller pKi number? Return value: the label identifying the chosen record.
Resp: P

* * *

Quick record: IC50, Amine oxidase [flavin-containing] B (Bos taurus).
Measure: IC50 (µM)

Compound: CC(=O)N1N=C(c2ccc(O)cc2)CC1c1ccc(C)cc1 (stereo not given)
IC50 [µM]: 30
//
Compound: CC(=O)N1N=C(c2ccc(O)cc2)CC1c1ccc(Cl)cc1 (stereo not given)
IC50 [µM]: 40

P: COc1ccccc1C1CC(c2ccc(O)cc2)=NN1C(C)=O (stereo in doubt; 6)
Q: CC(=O)N1N=C(c2ccc(O)cc2O)CC1c1ccc(C)cc1 (stereo not given)
R: CC(=O)N1N=C(c2ccc(O)cc2)CC1c1cccc(C)c1 (stereo not given)
Req: Rank the 3 compounds: largest IC50 first, smallest last. I would appreciate it if you listed the labels in the requested order.
Resp: P, Q, R
(P: 100 µM, Q: 42 µM, R: 19 µM)

* * *

# System tested: Monoamine oxidase (Bos taurus)
# Method: Inhibition of bovine monoamine oxidase
Measure: IC50 (µM)

Examples from the recorded data:
Compound: COc1ccc(C2CC(c3ccc(O)cc3O)=NN2C(C)=O)cc1 (configuration not stated)
Reported measurement: 10

Compound: COc1ccc(C2CC(c3ccc(O)cc3)=NN2C(C)=O)c(OC)c1 (configuration not stated)
Reported measurement: 10

Compound: COc1ccccc1C1CC(c2ccc(O)cc2O)=NN1C(C)=O (stereo in doubt; 11)
Reported measurement: 40

P: CC(=O)N1N=C(c2ccc(O)cc2)CC1c1ccccc1Cl (configuration not stated)
Q: CC(=O)N1N=C(c2ccc(O)cc2)CC1c1ccc(C)cc1 (configuration not stated)
R: COc1ccccc1C1CC(c2ccc(O)cc2)=NN1C(C)=O (stereo in doubt; 6)
S: CC(=O)N1N=C(c2ccc(O)cc2)CC1c1cccc(Cl)c1 (configuration not stated)
Req: Put the items in order so that reported IC50 rises from first to last. I would appreciate it if you listed the labels in the requested order.
Resp: Q, S, R, P
(Q: 0.2 µM, S: 12 µM, R: 30 µM, P: 50 µM)

A: CC(=O)N1N=C(c2ccc(O)cc2O)CC1c1ccc(C)cc1 (configuration not stated)
B: CC(=O)N1N=C(c2ccc(O)cc2O)CC1c1ccc(Cl)cc1 (configuration not stated)
Req: Field: entry with larger IC50 (options A / B ). Return value: the label identifying the chosen record.
Resp: B

* * *

# System tested: Monoamine oxidase (Bos taurus)
# Method: Inhibition of bovine monoamine oxidase
Measure: IC50 (µM)

Molecule: COc1ccc(C2CC(c3ccc(O)cc3)=NN2C(C)=O)cc1 (stereo not drawn)
System tested: Monoamine oxidase (Bos taurus)
Reported measurement: 3.6

1: CC(=O)N1N=C(c2ccc(O)cc2)CC1c1ccc(Cl)cc1 (stereo not drawn)
2: CC(=O)N1N=C(c2ccc(O)cc2)CC1c1cccc(C)c1 (stereo not drawn)
Req: Field: entry with larger IC50 (options 1 / 2 ). Return value: the label identifying the chosen record.
Resp: 1
(1: 40 µM, 2: 9.5 µM)
